Can you tell me pEC50 for the items I'm about to list?
# study.target: KCNQ2/3 heteromultimers (Rattus norvegicus, UniProt O88943+O88944)
# Construct: endogenous in cells; no transfection is described
# assay.info: Rubidium (Rb+) efflux test in PC-12 cells
# test.context: NGF-differentiated PC-12 cells, depolarization buffer 15 mM KCl, 10 min
pEC50: −log10 of the molar value.

Here is how some compounds turned out for pEC50.
{"columns": ["given.smiles", "study.target", "pEC50"],
 "data": [
  ["CCOC(=O)Nc1ccc(OCc2ccc(F)cc2)cc1", "KCNQ2/3 heteromultimers (Rattus norvegicus, UniProt O88943+O88944)", "6.30 to 7.30"],
  ["Cc1cc(OCc2cccc(C(F)(F)F)c2)cc(C)c1NC(=O)CC(C)(C)C", "KCNQ2/3 heteromultimers (Rattus norvegicus, UniProt O88943+O88944)", "7.30 to 8.00"],
  ["Cc1cc(OCc2ccc(F)cc2F)cc(C)c1NC(=O)CC(C)(C)C", "KCNQ2/3 heteromultimers (Rattus norvegicus, UniProt O88943+O88944)", "7.30 to 8.00"],
  ["Cc1ccc(COc2cc(C)c(NC(=O)CC(C)(C)C)c(C)c2)cc1", "KCNQ2/3 heteromultimers (Rattus norvegicus, UniProt O88943+O88944)", "7.30 to 8.00"],
  ["Cc1cc(OCc2ccc(F)c(F)c2)cc(C)c1NC(=O)CC(C)(C)C", "KCNQ2/3 heteromultimers (Rattus norvegicus, UniProt O88943+O88944)", "7.30 to 8.00"]
]}

Could you tell me pEC50 for each of these compounds? They are listed below.
1. Cc1cc(OCc2cccc(Cl)c2)cc(C)c1NC(=O)CC(C)(C)C
2. CCOC(=O)Nc1ccc(OCc2ccc(F)cc2)cc1C

7.30 to 8.00
6.30 to 7.30

meta.source: patent US8492588B2
